- Tested on: 5-Lipoxygenase
- METHOD: 5-Lox assay (colorimetric, ferric xylenol orange)
- Assay type: biochemical
- COND: 250 μM test substance; linoleic acid substrate, pH 6.3
- Procedure: The AKBA analogs were screened for their 5-Lipoxygenase inhibitory potential using colorimetric method of Craig A. Gay et al (Anal Biochem., 304, 42 46, 2002). The assay mixture contained 50 mM phosphate buffer pH 6.3, 5-Lipoxygenase, various concentrations of test substances and linoleic acid in a total volume of 0.5 mL after 5 min incubation of above reaction mixture 0.5 ml ferric xylenol orange reagent was added and OD was measured after two minutes at 585 nm using spectrophotometer (varian). […]
OBSERVABLE: % inhibition @ 250 μM (%)
Quick note: give the figure in %, leave out the unit.

Solved cases (3 shown):
>  <COMPOUND>
CC(=O)OC1CC[C@@]2(C)C(CC[C@]3(C)C2C(=O)C=C2C4[C@@H](C)[C@H](C)CC[C@]4(C)CC[C@]23C)[C@@]1(C)C(=O)NCCN (stereo partly drawn)

>  <OBSERVABLE>
% inhibition @ 250 μM

>  <VALUE REPORTED>
76.6

$$$$
>  <COMPOUND>
COC(=O)[C@@]1(C)/C(=N\O)CC[C@@]2(C)C1CC[C@]1(C)C2C(=O)C=C2C3[C@@H](C)[C@H](C)CC[C@]3(C)CC[C@]21C (stereo partly drawn)

>  <OBSERVABLE>
% inhibition @ 250 μM

>  <VALUE REPORTED>
41.6

$$$$
>  <COMPOUND>
CC(=O)OC1CC[C@@]2(C)C(CC[C@]3(C)C2C(=O)C=C2C4[C@@H](C)[C@H](C)CC[C@]4(C)CC[C@]23C)[C@@]1(C)C(N)=O (stereo partly drawn)

>  <OBSERVABLE>
% inhibition @ 250 μM

>  <VALUE REPORTED>
35.8

$$$$

Reported % inhibition @ 250 μM for CC1CCC2(C)CCC3(C)C(=CC(=O)C4C5(C)CCC(OC=O)C(C)(C(=O)O)C5CCC43C)C2C1C (stereo not drawn) : what is it?
5.5

Reported % inhibition @ 250 μM for CC(=O)OC1CC[C@@]2(C)C(CC[C@]3(C)C2C(=O)C=C2C4[C@@H](C)[C@H](C)CC[C@]4(C)CC[C@]23C)[C@@]1(C)N=C=O (stereo partly drawn) : what is it?
0

Reported % inhibition @ 250 μM for CC(=O)OC1CC[C@@]2(C)C(CC[C@]3(C)C2C(=O)C=C2C4[C@@H](C)[C@H](C)CC[C@]4(C)CC[C@]23C)[C@@]1(C)C#N (stereo partly drawn) : what is it?
9.8
